Target: S. pyogenes SKKanGAS, kanamycin survival, BacTiterGlo, 6 h
Assay: S. pyogenes SKKanGAS kanamycin growth inhibitors – SKKanGAS strain, luminescence, dose confirmation, streptokinase promoter inhibitor project, dose response (AID 1902);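 further: lower survival reflects blocked streptokinase promoter driving kanamycin resistance gene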
Calls of active or inactive are those of the source.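 How the source made its calls: active means EC50 no more than a set limit of log units above the highest dose; inactive means the rest.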
Possible outcomes: active, inactive

[[record]]
compound = "COc1ccc(C(=O)NC(=S)NNC(=O)COc2ccccc2)cc1"
class_label = "active"

[[record]]
compound = "CCOc1ccc(Cl)cc1S(=O)(=O)n1cnc2cc(C)c(C)cc21"
class_label = "active"

[[record]]
compound = "Cc1cccc2sc(NNC(=O)c3ccc(S(=O)(=O)N4CCCC(C)C4)cc3)nc12 (configuration not stated)"
class_label = "active"

[[record]]
compound = "CC(C)(C)c1ccc2c(c1)OC(C(=O)N/N=C/c1ccc([N+](=O)[O-])o1)CO2 (configuration not stated)"
class_label = "active"

[[record]]
compound = "CCCCc1nc2cc(C(=O)N3CCC(OCCOC)CC3)ccc2o1"
class_label = "inactive"

[[record]]
compound = "CCS(=O)(=O)N1Cc2ccccc2CC1C(=O)Nc1nnc(SCc2ccc(F)cc2)s1 (configuration not stated)"
class_label = "active"

[[record]]
compound = "O=c1cc(/N=C/c2coc3c(ccc4ccccc43)c2=O)[nH]c(=S)[nH]1"
class_label = "active"

[[record]]
compound = "CCCCc1nc(N2CCN(C(=O)c3ccco3)CC2)c(C#N)c2c1CCCC2"
class_label = "active"

[[record]]
compound = "NC(=S)N/N=C/c1ccc(C23CC4CC(CC(C4)C2)C3)cc1"
class_label = "active"

[[record]]
compound = "CN1CCN(C(c2ccc(Cl)cc2)c2cc(Cl)c3cccnc3c2O)CC1 (configuration not stated)"
class_label = "active"

[[record]]
compound = "Cc1cc(N/N=C/c2cccc(Br)c2)nc2ccccc12"
class_label = "active"

[[record]]
compound = "COc1ccc(O)c(-c2cc(-c3cccc(Br)c3)n[nH]2)c1"
class_label = "active"

[[record]]
compound = "CCSc1nsc(NC(=O)Nc2cccc(F)c2)n1"
class_label = "active"

[[record]]
compound = "CCN(CCn1cccn1)C(=O)CC1C(=O)NCCN1CCc1ccccc1 (configuration not stated)"
class_label = "inactive"

[[record]]
compound = "O=C(Oc1cccc2c(O)cccc12)c1ccccc1"
class_label = "inactive"

[[record]]
compound = "CC1CC(C)(C)n2c(O)c(N=NC(N)=S)c3cccc1c32 (configuration not stated)"
class_label = "active"

[[record]]
compound = "CN(/N=C/c1cc(Br)cc(Br)c1O)c1cccc(C(F)(F)F)n1"
class_label = "active"


====

Molecular target: S. pyogenes SKKanGAS, kanamycin survival, BacTiterGlo, 6 h
Assay: S. pyogenes SKKanGAS kanamycin growth inhibitors – SKKanGAS strain, luminescence, dose confirmation, streptokinase promoter inhibitor project, dose response (AID 1902);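 further: lower survival reflects blocked streptokinase promoter driving kanamycin resistance gene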
Calls of active or inactive are those of the source.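 Rule for the calls: active = EC50 no more than a set limit of log units above the highest dose; inactive = the rest.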
Possible outcomes: yes (1) for active, no (0) for inactive

[[record]]
molecule = "O=[N+]([O-])c1c(Nc2cccc(O)c2)cc(Cl)c2nonc12"
class_label = "yes (1)"

[[record]]
molecule = "Cc1ccc(-c2cc(-c3cccc(F)c3)n[nH]2)c(O)c1"
class_label = "yes (1)"

[[record]]
molecule = "O=[N+]([O-])c1cc(Cl)cc(/C=N/Nc2nc3ccccc3s2)c1O"
class_label = "yes (1)"

[[record]]
molecule = "CC(C(=O)NC1C(=O)N2C(C(=O)O)=C(CSc3nnnn3C)CSC12)n1cc(Cl)cn1 (stereo unspecified)"
class_label = "yes (1)"

[[record]]
molecule = "O=c1cc2c(nn1Cc1ccc(Cl)cc1Cl)-c1ccccc1CC2"
class_label = "yes (1)"

[[record]]
molecule = "Cc1noc(C)c1CSCC(=O)Nc1nc2ccc(Oc3ccccc3)cc2s1"
class_label = "yes (1)"

[[record]]
molecule = "CC(C)c1ccc(OCC(=O)NNC(=S)NC(=O)C2CC2)cc1"
class_label = "yes (1)"

[[record]]
molecule = "CC(=O)O[C@H]1CC[C@]2(C)[C@H]3CC=C4[C@@H]5[C@@H](C)[C@H](C)CC[C@]5(C(=O)O)CC[C@@]4(C)[C@]3(C)CC[C@H]2C1(C)C"
class_label = "yes (1)"

[[record]]
molecule = "O=C(COc1cccc(Cl)c1)Nc1ccccc1N1CCCCC1"
class_label = "yes (1)"

[[record]]
molecule = "CCc1nnc(NC(=O)c2ccc(S(=O)(=O)N3CCCc4ccccc43)cc2)o1"
class_label = "yes (1)"

[[record]]
molecule = "O=C(CN(c1cccc(Br)c1)S(=O)(=O)c1ccccc1)N/N=C/c1cc([N+](=O)[O-])ccc1O"
class_label = "yes (1)"

[[record]]
molecule = "CCCOc1ccc(-c2nc(OC)c3ccccc3n2)cc1"
class_label = "no (0)"

[[record]]
molecule = "C=CC1=C(C(=O)O)N2C(=O)[C@@H](NC(=O)/C(=N/OCC(=O)O)c3csc(N)n3)[C@H]2SC1"
class_label = "yes (1)"

[[record]]
molecule = "O=C(CNc1ccc(F)cc1)N/N=C/c1c(O)ccc2ccccc12"
class_label = "yes (1)"

[[record]]
molecule = "CC1=NN(c2ccccc2)C(=O)/C1=C/c1c(O)n(-c2ccc(F)c(Cl)c2)[nH]c1=O"
class_label = "yes (1)"

[[record]]
molecule = "Cc1cc(SCC(=O)N/N=C/c2ccc(O)cc2O)c(C)cc1Br"
class_label = "yes (1)"

[[record]]
molecule = "CCOC(=O)c1cnn(-c2nc3c(C)cccc3s2)c1C(F)(F)F"
class_label = "yes (1)"

[[record]]
molecule = "CC(C)OC(=O)c1c2nc3ccccc3nc2n2c1[nH]c(=O)c1ccccc12"
class_label = "yes (1)"

[[record]]
molecule = "CCCOc1ccc(C(=O)NC(=S)N2CCN(c3cc4c(cc3F)c(=O)c(C(=O)O)cn4CC)CC2)cc1"
class_label = "yes (1)"

[[record]]
molecule = "C/C(=N/NC(=O)c1cccs1)c1c(C)[nH]n(-c2nc3ccccc3s2)c1=O"
class_label = "yes (1)"

[[record]]
molecule = "Cc1cccc(NCc2nc3ccccc3n2Cc2ccccc2)c1"
class_label = "yes (1)"

